# Condition context: pH 7.4
# logD per record follows
Parameter: logD

- C[C@H]1COCCN1c1cc(CS(C)(=O)=O)nc(-c2ccc3[nH]ccc3c2)n1: 2.38
- CS(=O)(=O)Cc1cc(N2CCOCC2)nc(-c2ccc(NS(C)(=O)=O)cc2)n1: 0.85
- C[C@H]1CN(C(=O)OC(C)(C)C)CCN1c1ncc(OCc2ccc(S(C)(=O)=O)cc2)cn1: 3.5
- CC(C)(C)OC(=O)N1CCN(c2ccc(OCc3ccc(S(C)(=O)=O)cc3)nn2)CC1: 2.8
- CC(C)(C)OC(=O)N1CCN(c2cnc(OCc3ccc(S(C)(=O)=O)cc3)cn2)CC1: 3.4
- Cc1ccc(-c2cccc(-c3nn[nH]n3)c2)cc1: 1.3
- CS(=O)(=O)C1(c2cc(N3CCOCC3)nc(-c3cccc4[nH]ccc34)n2)CCOCC1: 2.4
- N#CC1(NC(=O)[C@@H]2CCCC[C@H]2C(=O)N2CCc3oc4ccccc4c3C2)CC1: 3.01
- COc1cc(N2CCN(C(=O)[C@@H]3CCCC[C@H]3C(=O)NC3(C#N)CC3)[C@H](C)C2)ccc1C1CC1: 3.49
- N#Cc1ccc(CN2CCN(c3ccc4nnc(C(F)(F)F)n4n3)CC2)cc1: 2.9
- COC1/C=C\OC2(C)Oc3c(C)c(O)c4c(c3C2=O)C(=O)C=C(NC(=O)/C(C)=C\C=C/C(C)C(O)C(C)C(O)C(C)C(OC(C)=O)C1C)C4=O (stereo not given): 0.7
- Cc1cnccc1COc1cnc(N2CCN(C(=O)OC(C)(C)C)CC2)nc1: 3.8
- N#CCNC(=O)[C@@H]1CCCC[C@H]1C(=O)N1CCN(c2ccc(C#N)cc2)CC1: 1.79
- N#CC1(NC(=O)[C@@H]2CCCC[C@H]2C(=O)N2CCc3[nH]c4cc(F)ccc4c3C2)CC1: 2.99
- N#CC1(NC(=O)[C@@H]2CCCC[C@H]2C(=O)N2CCN(c3nc(C(F)(F)F)cs3)CC2)CC1: 2.4
- CCCN(c1cccnc1)P(=O)(c1ccccc1)c1ccccc1: 2.6
- CCCSc1ncccc1C(=O)NC1[C@@H]2CC3C[C@H]1CC(O)(C3)C2 (stereo not given in full): 2.27
- CCNC(=O)c1cc2c(-n3ccc(C(F)(F)F)n3)c(-c3cncc(C#N)c3)cnc2[nH]1: 2.62
- N#CC1(NC(=O)[C@@H]2CCCC[C@H]2C(=O)N2CCc3[nH]c4c(C(F)(F)F)cccc4c3C2)CC1: 3.75
- Cc1ncc(-c2ccnc(Nc3ccc(N4CCN(S(=O)(=O)CCN(C)C)CC4)cc3)n2)n1C(C)C: 2.52
- CC(C)(C#N)c1cnc(N2CCN(C(=O)[C@@H]3CCCC[C@H]3C(=O)NC3(C#N)CC3)CC2)s1: 1.9
- COc1ccc2[nH]c3c(c2c1)CN(C(=O)[C@@H]1CCCC[C@H]1C(=O)NC1(C#N)CC1)CC3: 2.4
- CCNC(=O)c1cc2c(-n3ccc(C(F)(F)F)n3)c(-c3cncc(-c4n[nH]c(=O)o4)c3)cnc2[nH]1: 1.65
- CC(C)(C)OC(=O)N1CCN(c2ncc(OCc3ccncc3F)cn2)CC1: 3.6
- CS(=O)(=O)c1cccc2c3c([nH]c12)CCN(C(=O)[C@@H]1CCCC[C@H]1C(=O)NC1(C#N)CC1)C3: 1.7

Recorded values, source the SangsterLogP compilation.
